Data origin: paper PMC3189179

Biological target: T1, alanine aminotransferase (Homo sapiens, UniProt P24298)
T1 chain: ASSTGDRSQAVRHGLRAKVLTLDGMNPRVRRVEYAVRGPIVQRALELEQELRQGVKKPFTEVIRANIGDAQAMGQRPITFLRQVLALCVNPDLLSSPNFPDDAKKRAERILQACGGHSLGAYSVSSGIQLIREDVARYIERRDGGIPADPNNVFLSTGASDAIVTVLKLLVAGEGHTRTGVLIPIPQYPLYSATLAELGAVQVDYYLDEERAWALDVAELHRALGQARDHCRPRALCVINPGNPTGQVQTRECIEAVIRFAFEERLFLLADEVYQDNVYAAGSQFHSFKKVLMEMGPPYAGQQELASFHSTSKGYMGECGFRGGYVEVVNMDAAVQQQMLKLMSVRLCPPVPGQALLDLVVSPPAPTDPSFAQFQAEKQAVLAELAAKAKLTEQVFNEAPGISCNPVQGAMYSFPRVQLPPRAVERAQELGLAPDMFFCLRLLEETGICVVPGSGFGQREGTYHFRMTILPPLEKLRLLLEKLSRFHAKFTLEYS
Assay: phage ELISA
MEASURE: Kd (nM)
// note: answer is a bare numeric in nM

Fill in the blank: the reported Kd of WHWRNPDFWYLK (displayed on M13 phage) [ALT5-8 peptide (phage-displayed)] is ____.
85
